# measuredOn: T1, TSHR coated onto tubes (human, UniProt P16473 21-764, limits assumed)
# T1 construct: whole entry named; also called TSHR coated tubes; thyrotropin receptor
# assayOverview: TSHR coated tubes, competitor 125I-M22 IgG
Readings of % inhib of 125I-M22 IgG binding at 0.01 µg/mL for the listed binders
Please reply with the bare figure in % and do not write the unit itself.

• 9D33 IgG (antibody, V domains shown) VH: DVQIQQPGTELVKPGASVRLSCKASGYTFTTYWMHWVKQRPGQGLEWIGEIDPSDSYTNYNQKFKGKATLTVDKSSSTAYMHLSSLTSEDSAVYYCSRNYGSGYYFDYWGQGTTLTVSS VL: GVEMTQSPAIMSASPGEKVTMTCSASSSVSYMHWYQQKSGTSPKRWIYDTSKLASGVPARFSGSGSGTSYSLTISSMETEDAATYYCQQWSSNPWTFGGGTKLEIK = 13
• 16E5 IgG (antibody, V domains shown) VH: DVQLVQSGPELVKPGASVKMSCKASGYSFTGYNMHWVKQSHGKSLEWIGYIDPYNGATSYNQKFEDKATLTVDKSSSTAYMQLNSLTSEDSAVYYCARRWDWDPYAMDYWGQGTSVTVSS VL: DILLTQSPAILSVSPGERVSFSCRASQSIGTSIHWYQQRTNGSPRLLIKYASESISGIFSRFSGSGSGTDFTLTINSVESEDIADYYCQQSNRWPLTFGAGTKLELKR = 12
• 17D2 IgG (antibody, V domains shown) VH: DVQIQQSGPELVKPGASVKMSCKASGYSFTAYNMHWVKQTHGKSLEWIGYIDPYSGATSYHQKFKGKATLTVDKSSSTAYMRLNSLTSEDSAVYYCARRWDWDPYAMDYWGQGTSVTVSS VL: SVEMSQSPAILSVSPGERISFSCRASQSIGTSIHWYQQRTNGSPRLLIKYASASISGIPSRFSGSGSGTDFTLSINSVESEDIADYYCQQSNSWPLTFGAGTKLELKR = 1

Let us examine a further case.
Would you mind telling me what % inhib of 125I-M22 IgG binding at 0.01 µg/mL value was observed for 14D3 IgG (antibody, V domains shown) VH: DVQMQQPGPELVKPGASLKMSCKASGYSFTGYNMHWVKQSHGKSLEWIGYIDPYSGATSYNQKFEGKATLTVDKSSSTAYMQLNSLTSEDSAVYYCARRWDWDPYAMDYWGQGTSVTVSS VL: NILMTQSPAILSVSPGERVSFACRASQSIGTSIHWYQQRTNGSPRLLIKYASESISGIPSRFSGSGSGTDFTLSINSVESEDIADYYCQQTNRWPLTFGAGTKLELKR ?
3
